- assay.method.text: Metabolism studies using human liver microsomal preparations
- Format: in vitro ADME
- condition.notes: pH 7.4; pooled human liver microsomes, with NADPH (CYP system active), 37° C.; read-out: HLMs t1/2
- Protocol: Compounds were incubated in pooled human liver microsomes (HLMs) in the presence or absence of an NADPH-generating system. NADPH is required for the activity of cytochrome P450 (CYP) and other oxidative enzymes present in HLMs, but not for esterase activity. […] The disappearance of parent and the appearance of the corresponding acid metabolite were monitored over the time course of the incubations using LC-MS/MS. […]
readout: half-life (min)

1. CC(C)(Sc1ccc(C(=O)OCCc2cn(Cc3ccc(C(F)(F)F)cc3)nn2)cc1)C(=O)O
2. CCCCCCCn1c(COC(=O)c2ccc(OC(C)(C)C(=O)O)cc2)nn(Cc2ccc(C)cc2)c1=O
3. CCCCCCCn1c(COC(=O)c2ccc(SC(C)(C)C(=O)O)cc2)nn(Cc2ccc(C)cc2)c1=O
4. CCCn1c(COC(=O)c2ccc(OC(C)(C)C(=O)O)cc2)nn(Cc2ccc(C(=O)O[C@H](C)C(F)(F)C(F)(F)F)cc2)c1=O
5. CCCn1nc(Cc2ccc(C)cc2)cc1COC(=O)c1ccc(SC(C)(C)C(=O)O)cc1
Problem: Put the above compounds in order of rising half-life, beginning with the smallest. # list labels per requested ordering
Solution: 5, 4, 3, 2, 1

1. CCCCCCCCn1c(COC(=O)c2ccc(SC(C)(C)C(=O)O)cc2)nn(Cc2ccc(C)cc2)c1=O
2. CC(C)c1ccc(-n2nncc2COC(=O)c2ccc(SC(C)(C)C(=O)O)cc2)cc1
3. CCCc1nn(Cc2ccc(C(F)(F)F)cc2)cc1COC(=O)c1ccc(SC(C)(C)C(=O)O)cc1
Problem: Returns the items ordered by half-life, from maximum to minimum. # list labels per requested ordering
Solution: 3, 2, 1

I. CCCCCCCn1c(COC(=O)c2ccc(OC(C)(C)C(=O)O)cc2)nn(Cc2ccc(C(C)(C)C)cc2)c1=O
II. COC(c1ccc(Cn2cc(COC(=O)c3ccc(SC(C)(C)C(=O)O)cc3)nn2)cc1)(C(F)(F)F)C(F)(F)F
Problem: Hey, which is lower on measured half-life, I or II ? Lab note: record the label of whichever item you select.
Solution: II
(II: 25 min, I: 36 min)

---

- assay.method.text: Metabolism studies using human liver microsomal preparations
- Assay type: in vitro ADME
- condition.notes: pooled human liver microsomes, with NADPH (CYP system active), 37° C.
readout: HLMs t1/2 (min)

// below: answered compounds
| smiles | HLMs t1/2 (min) |
| --- | --- |
| CCCCCCn1c(COC(=O)c2ccc(SC(C)(C)C(=O)O)cc2)nn(Cc2ccc(C)cc2)c1=O | Stable |
| CCCCCCn1c(COC(=O)c2ccc(OC(C)(C)C(=O)O)cc2)nn(Cc2ccc(C)cc2)c1=O | Stable |
| CCCn1c([C@@H](C)OC(=O)c2ccc(SC(C)(C)C(=O)O)cc2)nn(Cc2ccc(C)cc2)c1=O | Stable |
| CCCn1c(COC(=O)c2ccc(OC(C)(C)C(=O)O)cc2)nn(Cc2ccc(C(C)(C)C)cc2)c1=O | Stable |
| Cc1ccc(Cn2nncc2COC(=O)c2ccc(OC(C)(C)C(=O)O)cc2)cc1 | Stable |

Problem: Supply recorded HLMs t1/2 (min) for CCCCCCn1c(COC(=O)Cc2ccc(OC(C)(C)C(=O)O)cc2)nn(Cc2ccc(C)cc2)c1=O here.
Solution: Stable

Problem: Supply recorded HLMs t1/2 (min) for Cc1ccc(Cn2cc(COC(=O)c3ccc(SC(C)(C)C(=O)O)cc3)cn2)cc1 here.
Solution: Stable
